Target: RAF proto-oncogene serine/threonine-protein kinase (Homo sapiens, UniProt P04049)
Sequence (P04049 whole entry): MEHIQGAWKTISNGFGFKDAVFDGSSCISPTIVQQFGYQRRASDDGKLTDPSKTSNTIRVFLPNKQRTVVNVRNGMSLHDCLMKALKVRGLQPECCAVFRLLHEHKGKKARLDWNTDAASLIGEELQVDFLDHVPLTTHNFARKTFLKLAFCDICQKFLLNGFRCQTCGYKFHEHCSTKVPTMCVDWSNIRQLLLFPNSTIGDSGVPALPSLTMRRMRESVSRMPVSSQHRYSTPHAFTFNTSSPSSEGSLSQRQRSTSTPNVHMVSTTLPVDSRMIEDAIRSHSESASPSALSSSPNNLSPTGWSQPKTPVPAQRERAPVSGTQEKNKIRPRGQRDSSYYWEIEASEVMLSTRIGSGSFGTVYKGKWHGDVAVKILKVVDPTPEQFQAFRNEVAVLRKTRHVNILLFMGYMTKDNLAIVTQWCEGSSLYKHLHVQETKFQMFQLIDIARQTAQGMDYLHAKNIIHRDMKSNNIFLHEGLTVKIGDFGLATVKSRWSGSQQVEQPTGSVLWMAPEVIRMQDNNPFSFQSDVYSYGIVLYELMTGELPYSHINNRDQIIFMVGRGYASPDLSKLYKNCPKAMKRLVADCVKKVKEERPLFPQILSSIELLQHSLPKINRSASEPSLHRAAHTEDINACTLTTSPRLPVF
Experiment: Inhibition of human cRAF using [33P-ATP] as a substrate by scintillation counting
Details: read-out: IC50
pIC50: −log10 of the molar value.
ASSAY ENDPOINT: pIC50

Entry Cc1ccc(NC(=O)c2cc(Cl)cc(C(F)(F)F)c2)cc1-c1nc2c(cnn2Cc2ccccc2)[nH]1 under RAF proto-oncogene serine/threonine-protein kinase (Homo sapiens, UniProt P04049) had pIC50 of 6.84

Observed pIC50 on RAF proto-oncogene serine/threonine-protein kinase (Homo sapiens, UniProt P04049), entry Cc1cn(-c2cc(NC(=O)Nc3ccc(-c4nc5[nH]ncc5[nH]4)c(C)c3)cc(C(F)(F)F)c2)cn1 , equals 7.30

A: Cc1ccc(NC(=O)Nc2cc(Cl)cc(C(F)(F)F)c2)cc1-c1nc2c(cnn2Cc2ccccc2)[nH]1
B: COc1ccc(Cn2ncc3[nH]c(-c4cc(NC(=O)Nc5ccc(Cl)c(Cl)c5)ccc4C)nc32)cc1
C: O=C(Nc1ccc(-c2nc3c(cnn3Cc3ccccc3)[nH]2)cc1)Nc1cc(Cl)cc(C(F)(F)F)c1
D: Cc1ccc(NC(=O)Nc2cc(N3CCOCC3)cc(C(F)(F)F)c2)cc1-c1nc2c(cnn2Cc2ccccc2)[nH]1
Exercise: Hi! Can you put these in order of pIC50, lowest number first? Reply with the labels, ordered as the question asks.
Key: B, C, D, A

Value source: ChEMBL document CHEMBL1155528
